Molecular target: UniProtKB Q9C0B1
Sequence (Q9C0B1 whole entry): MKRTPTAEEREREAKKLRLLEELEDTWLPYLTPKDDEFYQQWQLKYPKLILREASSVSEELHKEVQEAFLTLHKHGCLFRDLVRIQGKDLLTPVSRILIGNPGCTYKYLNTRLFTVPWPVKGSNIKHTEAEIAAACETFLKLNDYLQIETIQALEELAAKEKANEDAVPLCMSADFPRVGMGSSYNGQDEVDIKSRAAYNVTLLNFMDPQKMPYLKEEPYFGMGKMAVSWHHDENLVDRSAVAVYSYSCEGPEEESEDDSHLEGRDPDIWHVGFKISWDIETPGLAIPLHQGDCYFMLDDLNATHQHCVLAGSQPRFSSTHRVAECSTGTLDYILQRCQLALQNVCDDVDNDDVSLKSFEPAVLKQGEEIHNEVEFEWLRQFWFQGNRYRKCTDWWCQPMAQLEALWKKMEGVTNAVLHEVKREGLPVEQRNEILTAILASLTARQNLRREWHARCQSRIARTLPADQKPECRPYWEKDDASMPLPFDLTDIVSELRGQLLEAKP
pIC50: −log10 of the molar value.

>  <Smiles>
Cc1cc(O)c2c(c1)C(=O)c1cc(O)cc(O)c1C2=O

>  <pIC50>
4.31

$$$$
>  <Smiles>
Cc1c(C(=O)O)c(O)cc2c1C(=O)c1c(O)c([C@@H]3O[C@H](CO)[C@@H](O)[C@H](O)[C@H]3O)c(O)c(O)c1C2=O

>  <pIC50>
4.60

$$$$
>  <Smiles>
Cc1cc2c(c(O)c1Cl)C(=O)c1c(O)cc(O)cc1C2=O

>  <pIC50>
4.55

$$$$
>  <Smiles>
Cc1c(Cl)c(O)c2c(c1Cl)C(=O)c1cc(O)cc(O)c1C2=O

>  <pIC50>
4.38

$$$$
>  <Smiles>
O=C1c2cccc(O)c2C(=O)c2c(O)cc(CO)cc21

>  <pIC50>
4.28

$$$$
